assay_system: Luciferin 4-monooxygenase (Photinus pyralis, UniProt P08659)
Sequence (P08659 whole entry): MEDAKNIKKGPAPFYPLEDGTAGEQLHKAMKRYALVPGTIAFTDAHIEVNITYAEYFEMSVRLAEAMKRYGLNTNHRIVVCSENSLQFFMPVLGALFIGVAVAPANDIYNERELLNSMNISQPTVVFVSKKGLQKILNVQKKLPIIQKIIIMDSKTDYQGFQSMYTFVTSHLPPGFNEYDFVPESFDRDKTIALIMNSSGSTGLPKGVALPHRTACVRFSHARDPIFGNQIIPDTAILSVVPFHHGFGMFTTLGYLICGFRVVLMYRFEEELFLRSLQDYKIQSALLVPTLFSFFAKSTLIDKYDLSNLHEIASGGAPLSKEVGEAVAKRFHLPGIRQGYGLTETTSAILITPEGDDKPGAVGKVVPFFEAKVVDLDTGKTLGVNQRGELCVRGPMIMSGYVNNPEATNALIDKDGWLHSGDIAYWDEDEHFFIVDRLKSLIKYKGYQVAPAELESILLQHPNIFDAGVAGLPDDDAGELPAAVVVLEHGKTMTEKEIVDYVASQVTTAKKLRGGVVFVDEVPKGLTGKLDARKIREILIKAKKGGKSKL
assay_protocol: firefly luciferase enzyme inhibitors, dose response, biochemical, luminescence (AID 1891)
Activity calls are given as the source filed them.
reported_endpoint: EC50

Solved entries:
{"columns": ["compound", "assay_system", "EC50"],
 "data": [
  ["CCOc1cc2[nH]c(=S)n(CCC(=O)NCc3ccco3)c(=O)c2cc1OCC", "Luciferin 4-monooxygenase (Photinus pyralis, UniProt P08659)", "> 112 µM (not active)"],
  ["CCCCOC(=O)c1ccc(N=Nc2c(O)nc(O)c(C#N)c2C)cc1", "Luciferin 4-monooxygenase (Photinus pyralis, UniProt P08659)", "> 112 µM (not active)"],
  ["N/C(=N\\N=C\\c1ccc(O)cc1)c1nonc1N", "Luciferin 4-monooxygenase (Photinus pyralis, UniProt P08659)", "8.45 µM (active)"],
  ["Cc1cc2ccccc2nc1SCC(=O)N1c2ccccc2CC1C (stereo not drawn)", "Luciferin 4-monooxygenase (Photinus pyralis, UniProt P08659)", "> 112 µM (not active)"],
  ["CCN(CC)c1ccc(Nc2cc3n(c(=O)n2)CCc2cc(OC)c(OC)cc2-3)cc1", "Luciferin 4-monooxygenase (Photinus pyralis, UniProt P08659)", "> 112 µM (not active)"]
]}

# EC50 lookup, item CN(C)c1ccc(-c2nc(O)c3ccccc3n2)cc1
8.02 µM (active)

Thanks! And COc1ccc(OC)c(NC(=O)CSc2nc(N)c(-c3ccccc3)c(O)n2)c1 ?
> 112 µM (not active)

Thanks! And CCN(CC)c1ccc(/C=C(\C#N)C(N)=S)cc1 ?
22.7 µM (active)

Thanks! And Cn1c2[n+](c3ccc(Cl)cc3c1=O)Cc1ccccc1-2 ?
> 112 µM (not active)

Thanks! And CC(=O)c1c2c3c(c(Br)ccc3n(C)c1=O)C(=O)c1ccccc1-2 ?
> 112 µM (not active)

Thanks! And Cc1ccc(/C=C/C(=O)O)cc1S(=O)(=O)N1CCCCC1 ?
> 112 µM (not active)

Thanks! And Cc1ccc2nc(O)c3cc(C(=O)N(C)c4ccc(C)c(C)c4)sc3c2c1 ?
> 112 µM (not active)

Thanks! And Cn1c(CN2CCCC2)nc2cc(NC(=O)COc3ccccc3)ccc21 ?
> 112 µM (not active)

###

assay_system: Sentrin-specific protease 6 (Homo sapiens, UniProt Q9GZR1);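 also: Luminescence-based dose-response confirmatory assay of SENP6 inhibition, following up an ultra-high-throughput screen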
Sequence (Q9GZR1 whole entry): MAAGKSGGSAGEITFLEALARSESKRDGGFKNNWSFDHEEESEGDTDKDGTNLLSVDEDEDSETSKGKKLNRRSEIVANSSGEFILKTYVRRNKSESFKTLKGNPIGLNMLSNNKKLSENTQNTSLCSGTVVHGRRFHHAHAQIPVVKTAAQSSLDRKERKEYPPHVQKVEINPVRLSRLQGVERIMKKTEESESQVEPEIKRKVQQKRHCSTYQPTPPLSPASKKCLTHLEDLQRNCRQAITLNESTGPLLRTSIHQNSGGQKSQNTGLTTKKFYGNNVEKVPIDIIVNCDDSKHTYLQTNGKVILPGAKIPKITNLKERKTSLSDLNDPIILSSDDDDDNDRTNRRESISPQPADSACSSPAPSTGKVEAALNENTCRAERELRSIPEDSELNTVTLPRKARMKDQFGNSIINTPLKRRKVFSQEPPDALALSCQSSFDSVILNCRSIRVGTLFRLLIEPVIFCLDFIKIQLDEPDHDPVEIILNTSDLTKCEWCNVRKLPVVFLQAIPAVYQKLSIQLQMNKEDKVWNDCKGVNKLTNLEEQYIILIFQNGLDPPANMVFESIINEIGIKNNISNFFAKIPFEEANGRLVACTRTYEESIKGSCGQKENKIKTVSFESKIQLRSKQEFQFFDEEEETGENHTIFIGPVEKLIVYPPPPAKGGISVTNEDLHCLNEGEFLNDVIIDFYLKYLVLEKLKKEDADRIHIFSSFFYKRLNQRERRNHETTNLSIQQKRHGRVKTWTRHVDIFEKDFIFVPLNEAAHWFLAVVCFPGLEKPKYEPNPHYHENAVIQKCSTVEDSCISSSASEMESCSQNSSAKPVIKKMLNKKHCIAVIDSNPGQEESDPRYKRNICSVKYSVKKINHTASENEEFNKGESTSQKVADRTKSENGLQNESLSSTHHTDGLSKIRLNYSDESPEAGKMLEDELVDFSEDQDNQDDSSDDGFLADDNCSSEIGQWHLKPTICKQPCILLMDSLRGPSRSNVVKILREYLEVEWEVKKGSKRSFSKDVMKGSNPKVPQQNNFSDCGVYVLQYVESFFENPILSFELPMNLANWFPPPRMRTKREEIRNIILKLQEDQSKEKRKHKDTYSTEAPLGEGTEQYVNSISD
Assay type: functional
Active and inactive are the calls of the source.
Response enum: active, inactive

A selection of reference data follows.
{"columns": ["substance_smiles", "assigned_category"],
 "data": [
  ["CC(=O)c1sc(N/N=C\\c2ccccc2O)nc1C", "active"],
  ["O=C(Nc1ccc(NC(=O)c2cccs2)c(Cl)c1)c1cccs1", "active"],
  ["O=C(Cc1ccccc1F)Nc1ccc(SC(F)F)cc1", "inactive"],
  ["O=[N+]([O-])c1ccc(-c2nc3cc([N+](=O)[O-])ccc3[nH]2)cc1", "active"],
  ["O/C(=C\\c1nc2ccccc2[nH]1)c1cccs1", "active"],
  ["O=C(/C=C/c1cccs1)c1ccc(N2CCOCC2)cc1", "active"]
]}

Just curious, what result did COc1cc(C#Cc2ccc3cc(CCCO)oc(=O)c3c2)cc(OC)c1 get here?
active

Thanks! And Cc1ccc(-c2nnc(Nc3ccccc3)[nH]2)cc1 ?
inactive

###

assay_system: RNA-binding protein pos-1 (Caenorhabditis elegans)
Sequence (G5EF15 whole entry): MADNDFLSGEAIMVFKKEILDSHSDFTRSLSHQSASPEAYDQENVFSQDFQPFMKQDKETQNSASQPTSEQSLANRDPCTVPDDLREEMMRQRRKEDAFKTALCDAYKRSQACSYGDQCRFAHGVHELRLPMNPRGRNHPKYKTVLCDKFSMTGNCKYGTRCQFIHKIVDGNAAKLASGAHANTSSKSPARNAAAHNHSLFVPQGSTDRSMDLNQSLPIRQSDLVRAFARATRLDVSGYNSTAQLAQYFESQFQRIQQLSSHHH
assay_protocol: inhibitors of POS-1/mex-3 RNA binding, dose response, biochemical, fluorescence polarization (AID 1964);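 also: purified POS-1 fused to maltose binding protein made in E. coli; potency of compounds blocking POS-1 binding to fluorescent RNA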
reported_endpoint: EC50

Solved entries:
{"columns": ["compound", "observed_value"],
 "data": [
  ["COc1cc(OC)c(C2C(C#N)=C(N)OC3=C2C(=O)CC(C)C3)cc1OC (stereo not drawn)", "> 300 µM (not active)"],
  ["Cc1ccc(C(=O)O)cc1-n1c(C)cc(C=O)c1C", "> 300 µM (not active)"]
]}

# EC50 lookup, item COc1ccc(/C=C/C(=O)c2c(C)cc(C)nc2O)c2ccccc12
> 300 µM (not active)

###

assay_system: Eukaryotic translation initiation factor 4E (Mus musculus)
Sequence (P63073 whole entry): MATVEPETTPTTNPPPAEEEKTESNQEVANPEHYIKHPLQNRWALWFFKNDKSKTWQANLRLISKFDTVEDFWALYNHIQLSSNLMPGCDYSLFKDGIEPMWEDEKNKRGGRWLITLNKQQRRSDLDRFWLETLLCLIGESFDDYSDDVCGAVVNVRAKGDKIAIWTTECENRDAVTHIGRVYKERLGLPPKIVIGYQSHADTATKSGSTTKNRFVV
assay_protocol: eIF4E–eIF4G protein interaction inhibitors, dose response, biochemical, TR-FRET (AID 855);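 also: potency for disrupting eIF4E binding to eIF4GI seen as loss of FRET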
Type: functional
Activity calls are given as the source filed them.
Response enum: 1 = active, 0 = inactive

{"columns": ["substance_smiles", "assigned_category"],
 "data": [
  ["COc1cccc(NC(=O)Nc2ccc(C(C)(C)C)cc2)c1", 0],
  ["O=[N+]([O-])c1cc(Br)c(O)c(/C=N/Nc2nnnn2-c2cccc3ccccc23)c1", 0],
  ["CCOc1cc(/C=N/NC(=O)c2ccc(-c3csc(Nc4ccc(C)cc4)n3)cc2)ccc1OCC(=O)O", 0],
  ["COc1cc(/N=c2\\ssnc2Cl)c(OC)cc1Cl", 1]
]}

As a next step, examine the compound that follows.
Just curious, what result did Nc1ccc(S(=O)(=O)N2CCCc3ccccc32)cc1 get here?
0

###

assay_system: Peroxisome proliferator-activated receptor gamma/Nuclear receptor coactivator 2 (Homo sapiens)
Sequence (P37231 whole entry): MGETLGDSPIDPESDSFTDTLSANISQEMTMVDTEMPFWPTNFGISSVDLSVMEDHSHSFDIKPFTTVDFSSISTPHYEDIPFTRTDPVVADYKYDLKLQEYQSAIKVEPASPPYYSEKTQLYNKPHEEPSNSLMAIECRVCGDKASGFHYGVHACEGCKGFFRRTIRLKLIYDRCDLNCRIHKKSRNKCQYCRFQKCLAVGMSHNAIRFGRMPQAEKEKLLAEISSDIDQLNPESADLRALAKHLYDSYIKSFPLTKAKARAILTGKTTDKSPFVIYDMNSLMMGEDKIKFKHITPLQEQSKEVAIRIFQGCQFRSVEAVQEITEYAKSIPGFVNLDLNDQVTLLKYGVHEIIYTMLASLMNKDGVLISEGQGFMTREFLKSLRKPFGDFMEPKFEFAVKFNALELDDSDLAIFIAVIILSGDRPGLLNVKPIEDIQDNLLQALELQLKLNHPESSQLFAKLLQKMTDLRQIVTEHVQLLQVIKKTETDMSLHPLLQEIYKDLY
Sequence (Q15596 whole entry, further chain): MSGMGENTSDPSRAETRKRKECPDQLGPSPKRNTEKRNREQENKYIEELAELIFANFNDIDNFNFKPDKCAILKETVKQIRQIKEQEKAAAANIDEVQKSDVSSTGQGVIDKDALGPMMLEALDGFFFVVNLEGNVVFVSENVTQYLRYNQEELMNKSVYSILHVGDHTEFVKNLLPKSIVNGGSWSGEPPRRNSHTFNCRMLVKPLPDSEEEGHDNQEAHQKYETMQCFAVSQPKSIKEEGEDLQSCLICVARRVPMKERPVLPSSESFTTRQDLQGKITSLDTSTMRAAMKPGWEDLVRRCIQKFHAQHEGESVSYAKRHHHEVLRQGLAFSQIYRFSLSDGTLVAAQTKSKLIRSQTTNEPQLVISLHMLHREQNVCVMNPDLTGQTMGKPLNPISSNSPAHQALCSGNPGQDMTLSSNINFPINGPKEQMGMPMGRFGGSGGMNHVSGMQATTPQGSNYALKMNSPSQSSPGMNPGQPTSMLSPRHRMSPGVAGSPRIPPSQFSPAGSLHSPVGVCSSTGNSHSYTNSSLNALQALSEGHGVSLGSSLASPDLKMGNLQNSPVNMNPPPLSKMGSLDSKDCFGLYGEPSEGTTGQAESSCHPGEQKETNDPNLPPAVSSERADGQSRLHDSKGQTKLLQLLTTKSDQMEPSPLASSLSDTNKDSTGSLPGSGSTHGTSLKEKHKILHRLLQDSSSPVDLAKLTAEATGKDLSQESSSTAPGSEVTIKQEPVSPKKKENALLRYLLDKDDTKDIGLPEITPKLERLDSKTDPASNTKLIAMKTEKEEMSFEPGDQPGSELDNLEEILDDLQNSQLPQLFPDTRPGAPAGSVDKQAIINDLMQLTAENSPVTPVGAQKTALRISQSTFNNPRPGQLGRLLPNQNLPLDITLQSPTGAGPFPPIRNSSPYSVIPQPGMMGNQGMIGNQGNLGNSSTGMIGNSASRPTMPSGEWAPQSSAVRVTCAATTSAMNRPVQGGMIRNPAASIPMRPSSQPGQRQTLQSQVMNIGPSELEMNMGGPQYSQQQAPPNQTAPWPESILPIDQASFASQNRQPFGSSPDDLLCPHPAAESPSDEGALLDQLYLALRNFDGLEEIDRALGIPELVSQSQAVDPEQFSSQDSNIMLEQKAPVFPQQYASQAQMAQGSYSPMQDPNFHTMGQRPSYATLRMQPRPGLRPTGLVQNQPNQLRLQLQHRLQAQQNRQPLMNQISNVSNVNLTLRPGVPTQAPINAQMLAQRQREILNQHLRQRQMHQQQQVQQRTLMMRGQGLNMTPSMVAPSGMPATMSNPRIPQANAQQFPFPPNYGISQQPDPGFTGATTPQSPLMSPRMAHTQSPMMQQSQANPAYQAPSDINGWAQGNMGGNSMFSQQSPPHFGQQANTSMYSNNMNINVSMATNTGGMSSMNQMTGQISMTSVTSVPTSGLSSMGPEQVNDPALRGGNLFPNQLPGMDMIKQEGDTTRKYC
assay_protocol: TR-FRET dose response biochemical High Throughput Screening assay for agonists of the steroid receptor coactivator 2 (SRC-2) recruitment by the peroxisome proliferator-activated receptor gamma (PPAR gamma): non-selective agonists. [Related pubchem assays: 1297, 1032 ]
Format: functional
Activity calls are given as the source filed them.
Below, each of the compounds is paired with its reported EC50 value.

Solved entries:
{"columns": ["compound", "observed_value"],
 "data": [
  ["CCCCOC(=O)CNc1nnc(S)nc1O", "4.23 µM (active)"],
  ["CCOC(=O)c1c(C)nsc1S", "> 26.5 µM (not active)"],
  ["CN(Cc1ccccc1)C(=O)CSc1cc(=O)n(C)c2ccccc12", "> 79.4 µM (not active)"],
  ["CC(=O)CSc1ncnc2c1oc1ccccc12", "> 26.5 µM (not active)"]
]}

# EC50 lookup, item c1ccc2[nH]c(CSc3ncnc4c3oc3ccccc34)nc2c1
5.6 µM (active)

Thanks! And COc1ccc(NC(C)C(=O)N/N=C/c2ccccc2OCc2cccc(Br)c2)cc1 (stereo unspecified) ?
> 79.4 µM (not active)

###

Below, each of the molecules is paired with its reported IC50 value.
assay_system: Mitogen-activated protein kinase 10 (Homo sapiens, UniProt P53779)
Sequence (P53779 whole entry): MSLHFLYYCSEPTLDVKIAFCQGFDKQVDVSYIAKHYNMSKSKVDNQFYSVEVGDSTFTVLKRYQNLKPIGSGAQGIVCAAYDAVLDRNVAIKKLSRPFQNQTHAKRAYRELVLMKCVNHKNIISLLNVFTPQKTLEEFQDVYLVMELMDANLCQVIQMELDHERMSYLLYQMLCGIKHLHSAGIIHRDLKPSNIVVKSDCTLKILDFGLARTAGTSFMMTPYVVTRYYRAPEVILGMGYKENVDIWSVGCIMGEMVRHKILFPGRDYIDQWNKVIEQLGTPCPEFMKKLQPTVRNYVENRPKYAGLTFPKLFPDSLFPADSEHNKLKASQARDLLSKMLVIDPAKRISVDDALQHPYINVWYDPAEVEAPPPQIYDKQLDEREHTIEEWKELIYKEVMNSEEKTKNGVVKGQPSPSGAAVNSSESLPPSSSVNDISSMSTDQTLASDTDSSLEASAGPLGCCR
assay_protocol: Dose response biochemical screening assay for inhibitors of c-Jun N-Terminal Kinase 3 (JNK3). [Related pubchem assays: 746 ]

{"columns": ["molecule", "IC50"],
 "data": [
  ["COC(=O)c1sccc1NC(=O)C1CC=CCC1C(=O)O (stereo unspecified)", "19.8 µM (not active)"],
  ["c1ccc2[nH]c(CSc3ncnc4c3oc3ccccc34)nc2c1", "> 93.1 µM (not active)"],
  ["CCOC(=O)c1c(C)nsc1S", "30.5 µM (not active)"],
  ["Cc1nc(NCc2ccco2)c(C#N)c2c1COC(C)(C)C2", "37.5 µM (not active)"],
  ["CCOC(=O)c1cnc2ccc(Cl)cc2c1N1CCN(C)CC1", "25.9 µM (not active)"]
]}

Now turn to the next molecule.
# IC50 lookup, item Cc1ccc2nc(Cc3ccc(N)cc3)oc2c1
49.9 µM (not active)

###

assay_system: Polyadenylate-binding protein 1 (Homo sapiens, UniProt P11940)
Sequence (P11940 whole entry): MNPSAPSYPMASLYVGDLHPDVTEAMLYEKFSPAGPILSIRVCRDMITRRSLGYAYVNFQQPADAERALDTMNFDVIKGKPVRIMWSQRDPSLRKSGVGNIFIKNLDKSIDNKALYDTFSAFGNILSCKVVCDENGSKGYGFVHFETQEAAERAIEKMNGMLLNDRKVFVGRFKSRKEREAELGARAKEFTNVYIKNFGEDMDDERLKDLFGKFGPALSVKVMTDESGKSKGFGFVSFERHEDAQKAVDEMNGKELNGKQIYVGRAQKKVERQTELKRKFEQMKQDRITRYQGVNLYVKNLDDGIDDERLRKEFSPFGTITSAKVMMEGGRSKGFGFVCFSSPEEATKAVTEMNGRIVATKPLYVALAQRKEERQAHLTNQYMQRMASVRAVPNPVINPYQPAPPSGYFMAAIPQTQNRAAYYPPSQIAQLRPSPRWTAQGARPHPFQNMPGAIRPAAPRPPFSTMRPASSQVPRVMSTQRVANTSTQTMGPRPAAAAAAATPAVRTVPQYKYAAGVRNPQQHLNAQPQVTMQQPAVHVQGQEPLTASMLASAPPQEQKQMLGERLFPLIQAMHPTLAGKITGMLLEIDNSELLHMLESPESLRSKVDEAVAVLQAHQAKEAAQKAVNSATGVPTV
assay_protocol: PABP1 MLLE–PAM2 interaction inhibitors, dose response, miRNA deadenylation inhibitor project, biochemical, fluorescence polarization, Cy5-PAM2 peptide, secondary (AID 602260)
Assay type: functional
condition_info: read-out: IC50_Mean
Calls of active or inactive are those of the source.
reported_endpoint: IC50

Solved entries:
{"columns": ["compound", "observed_value"],
 "data": [
  ["CC1=C(C(=O)O)N2C(=O)C(NC(=O)c3ccc(F)cc3)C2SC1 (stereo unspecified)", "> 66 µM (inactive)"],
  ["CC(=O)c1c2c3c(c(Br)ccc3n(C)c1=O)C(=O)c1ccccc1-2", "45.8 µM (inactive)"],
  ["CCCN1C(=O)SC(CC(=O)Nc2ccc(C)cc2)C1=O (stereo unspecified)", "> 66 µM (inactive)"],
  ["CC(C)(CCC(=S)N1CCOCC1)C1CCCCC1", "> 66 µM (inactive)"],
  ["CC(=O)c1ccc(OCCCC(=O)NC2=NCCS2)cc1", "> 66 µM (inactive)"]
]}

I'm curious: which IC50 was measured for COc1cccc(-n2c(=S)sc3c(=O)n(-c4ccccc4OC)c(=S)[nH]c32)c1 tested on Polyadenylate-binding protein 1 (Homo sapiens, UniProt P11940)?
> 66 µM (inactive)

Reference source: ChEMBL document CHEMBL1201862
